# Tested on: ammonia lateralization threshold
# test_description: Panel evaluation of the lateralization threshold (LT) of ammonia alone and in combination with a PRM
# Format: in vivo, panellists
# Design: unit not given here
# assay_conditions: Table 4; ammonia stimulus combined with PRM stimulus
Reported LT of ammonia Panellist 3 Cond II values follow for various molecules
// return a plain number; no unit text

Example entries begin here.
>  <molecule>
CCOC(=O)C1=C(C)C=CCC1(C)C

>  <LT of ammonia Panellist 3 Cond II>
0.2

$$$$
>  <molecule>
CCC=CCC=C/C=C/C(=O)OCC [Ethyl (2E)-2,4,7-decatrienoate]

>  <LT of ammonia Panellist 3 Cond II>
2.0

$$$$
>  <molecule>
CC(=O)OCCC1CCCCC1 [2-cyclohexylethyl acetate]

>  <LT of ammonia Panellist 3 Cond II>
1.1

$$$$
>  <molecule>
C=CCOC(=O)COC1CCCCC1 [Cyclogalbanate, Allyl (cyclohexyloxy)-acetate]

>  <LT of ammonia Panellist 3 Cond II>
3.5

$$$$
>  <molecule>
C[C@H]1[C@@H]2CC(C[C@@]13C=CC(=O)CC3)C2(C)C (single isomer, unassigned; (+))

>  <LT of ammonia Panellist 3 Cond II>
0.6

$$$$
>  <molecule>
CCCOC(=O)[C@H](C)OC(C)(C)CC [Sclareolate ®]

>  <LT of ammonia Panellist 3 Cond II>
0.6

$$$$
>  <molecule>
C=C1CCCC(C)(C)C1C(=O)/C=C/C (racemic)

>  <LT of ammonia Panellist 3 Cond II>
11.1

$$$$
>  <molecule>
CC(C)[C@H]1CC[C@@H](CO)CC1 [Mayol ®, cis-7-P-menthanol]

>  <LT of ammonia Panellist 3 Cond II>
3.5

$$$$

Next, consider the following molecule.
stdin: Return LT of ammonia Panellist 3 Cond II (reported value) for this molecule: CCCc1ccc2c(c1)OCC(=O)CO2 [7-Propyl-2H,4H-1,5-benzodioxepin-3-one]
stdout: 3.5

----------
LT of ammonia Panellist 1 Cond II by entry:
# Tested on: ammonia lateralization threshold
# test_description: Panel evaluation of the lateralization threshold (LT) of ammonia alone and in combination with a PRM
# Format: in vivo, panellists
# Design: unit not given here
# assay_conditions: Table 4; ammonia stimulus combined with PRM stimulus

>  <compound>
CCOC(=O)C(C)CC (centres unmarked) [Ethyl 2-methylbutanoate]

>  <LT of ammonia Panellist 1 Cond II>
19.6

$$$$
>  <compound>
C=C1CCCC(C)(C)C1C(=O)OC (centres unmarked) [Romascone ®]

>  <LT of ammonia Panellist 1 Cond II>
11.1

$$$$
>  <compound>
CCC=CCC=C/C=C/C(=O)OCC [Ethyl (2E)-2,4,7-decatrienoate]

>  <LT of ammonia Panellist 1 Cond II>
1.1

$$$$
>  <compound>
CCCc1ccc2c(c1)OCC(=O)CO2 [7-Propyl-2H,4H-1,5-benzodioxepin-3-one]

>  <LT of ammonia Panellist 1 Cond II>
11.1

$$$$
>  <compound>
CCCCC[C@H]1CCC[C@H]1O (relative stereo) [Cis-2-pentyl-1-cyclopentanol]

>  <LT of ammonia Panellist 1 Cond II>
2.0

$$$$

stdin: # return recorded LT of ammonia Panellist 1 Cond II for entry C=C1CCCC(C)(C)C1C(=O)/C=C/C (racemic) [Gamma damascone]
stdout: 6.3

stdin: Using known records, supply LT of ammonia Panellist 1 Cond II for CC=CC(=O)C1=C(C)CCCC1(C)C [Beta Dorinone ®]
stdout: 11.1

stdin: Let me know recorded LT of ammonia Panellist 1 Cond II for C[C@H]1[C@@H]2CC(C[C@@]13C=CC(=O)CC3)C2(C)C (single isomer, unassigned; (+)) , thanks.
stdout: 0.4
